TEST TARGET: T1, NPY2 receptor (human (printed as hNPY2R), UniProt P49146 1-381)
T1 sequence (looked up): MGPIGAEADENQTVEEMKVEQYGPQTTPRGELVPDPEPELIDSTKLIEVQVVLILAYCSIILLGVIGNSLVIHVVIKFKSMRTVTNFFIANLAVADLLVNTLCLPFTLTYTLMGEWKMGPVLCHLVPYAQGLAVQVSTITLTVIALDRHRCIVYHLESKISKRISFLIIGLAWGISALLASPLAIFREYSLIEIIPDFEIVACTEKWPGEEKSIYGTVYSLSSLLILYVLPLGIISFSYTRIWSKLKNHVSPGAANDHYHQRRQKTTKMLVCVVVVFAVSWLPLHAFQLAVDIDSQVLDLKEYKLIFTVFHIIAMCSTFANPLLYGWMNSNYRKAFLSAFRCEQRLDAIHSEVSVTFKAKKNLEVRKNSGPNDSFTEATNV
PROTOCOL DESCRIPTION: cell-based or functional assay
Starred links: 1 amine or outer side, 2 acyl side, 3 side chain; linkers in the order of their positions; H or OH if unused. Non-standard residues stand in square brackets, D forms with d. Groups on a side chain read outwards from the residue. No end group written: not given here. *: point of attachment. C20 diacid = O=C(O)CCCCCCCCCCCCCCCCCCC(=O)*; γGlu = O=C(O)[C@H](CCC(=O)[*:2])N[*:1]; εLys = N[C@@H](CCCCN[*:1])C(=O)[*:2]; Aib = CC(C)(N)C(=O)O
I'd appreciate it if you marked entries 1 when EC50 hNPY2R 100% hP (CreLuc) is lower than 60 nM and 0 when it is not.

Answered examples (6):
Is it true that EC50 hNPY2R 100% hP (CreLuc) reported for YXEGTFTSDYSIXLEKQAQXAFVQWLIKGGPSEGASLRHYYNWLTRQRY (Aib at 2, 13, 20; K28 side chain carries C20DA-gGlu-gGlu-gGlu-gGlu-gGlu-OEG-OEG; C-terminal amide) [Compound 228] is less than 60 nM?
1

Is it true that EC50 hNPY2R 100% hP (CreLuc) reported for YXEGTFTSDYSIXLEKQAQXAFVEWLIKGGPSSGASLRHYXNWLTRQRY (Aib at 2, 13, 20, 41; K28 side chain carries C20DA-gGlu-gGlu-gGlu-gGlu-gGlu-gGlu-eLys; C-terminal amide) [Compound 184] is less than 60 nM?
0

Is it true that EC50 hNPY2R 100% hP (CreLuc) reported for Y[Aib]EGTFTSDYSI[Aib]LE[Aib]QAQ[Aib]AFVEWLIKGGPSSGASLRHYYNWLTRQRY-NH2 (not fully specified (residue 28); also: TFA salt) [Compound 199] is less than 60 nM?
0

Is it true that EC50 hNPY2R 100% hP (CreLuc) reported for Y[Aib]EGTFTSDYSI[Aib]LEKQAQ[Aib]AFVEWLIK([γGlu-γGlu-γGlu-γGlu-γGlu-γGlu-C20 diacid])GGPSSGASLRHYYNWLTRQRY-NH2 (also: TFA salt) [Compound 235] is less than 60 nM?
0

Is it true that EC50 hNPY2R 100% hP (CreLuc) reported for YXEGTFTSDYSIXLEKQAQDAFVEWLIKGGPSSGASLRHYYNWLTRQRY (Aib at 2, 13; D-Asp at 20; K28 side chain carries C20DA-gGlu-gGlu-gGlu-gGlu-gGlu-gGlu-eLys; C-terminal amide) [Compound 211] is less than 60 nM?
1

Is it true that EC50 hNPY2R 100% hP (CreLuc) reported for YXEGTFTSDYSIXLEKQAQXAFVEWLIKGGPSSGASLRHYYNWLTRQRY (Aib at 2, 13, 20; K28 side chain carries C18DA-gGlu-gGlu-gGlu-gGlu-gGlu; C-terminal amide) [Compound 253] is less than 60 nM?
1

Next:
Is it true that EC50 hNPY2R 100% hP (CreLuc) reported for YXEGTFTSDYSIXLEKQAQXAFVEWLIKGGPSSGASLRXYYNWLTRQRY (Aib at 2, 13, 20, 39; K28 side chain carries C20DA-gGlu-gGlu-gGlu-gGlu-gGlu-gGlu-eLys; C-terminal amide) [Compound 182] is less than 60 nM?
0

Is it true that EC50 hNPY2R 100% hP (CreLuc) reported for Y[Aib]EGTFTSDYSI[Aib]LEKQAQ[Aib]AFVEWLIKGGPSSGASLRHYYNW[dD]TRQRY-NH2 (not fully specified (residue 28); also: TFA salt) [Compound 204] is less than 60 nM?
0

Is it true that EC50 hNPY2R 100% hP (CreLuc) reported for Y[Aib]EGTFTSDYSI[Aib]LEKQAE[Aib]AFVQWLIK([εLys-γGlu-γGlu-γGlu-γGlu-γGlu-C20 diacid])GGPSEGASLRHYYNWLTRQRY-NH2 (also: TFA salt) [Compound 200] is less than 60 nM?
0

Is it true that EC50 hNPY2R 100% hP (CreLuc) reported for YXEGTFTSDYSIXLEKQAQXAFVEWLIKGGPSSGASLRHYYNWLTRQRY (Aib at 2, 13, 20; K28 side chain carries C20DA-gGlu-gGlu-gGlu-gGlu-gGlu-gGlu-eLys; C-terminal amide) [Compound 221] is less than 60 nM?
1
